# Target: thrombin (UniProt P00734;P00734 315-363;364-622)
# Measurement description: bead-based fluorescence; PDGF-BB and ApoE: PBS pH 7.4, 1 mM MgCl2, 0.025% Tween 20; thrombin: 50 mM Tris pH 7.5, 100 mM NaCl, 1 mM MgCl2, 5 mM KCl, 1 mM CaCl2, 0.025% Tween 20; 1 h, roo
Readout type: Kd (nM)

binder="GGTTGGTGTGGTTGG (ssDNA) [Bock thrombin aptamer (consensus 15-mer)]" readout_type=Kd assay_result=1.2
binder="AGTCCGTGGTAGGGCAGGTTGGGGTGACT (ssDNA) [Tasset thrombin aptamer 60-18[29]]" readout_type=Kd assay_result=11.9
